Target: C-C chemokine receptor type 3 (Homo sapiens) (UniProt P51677)
Sequence (whole entry): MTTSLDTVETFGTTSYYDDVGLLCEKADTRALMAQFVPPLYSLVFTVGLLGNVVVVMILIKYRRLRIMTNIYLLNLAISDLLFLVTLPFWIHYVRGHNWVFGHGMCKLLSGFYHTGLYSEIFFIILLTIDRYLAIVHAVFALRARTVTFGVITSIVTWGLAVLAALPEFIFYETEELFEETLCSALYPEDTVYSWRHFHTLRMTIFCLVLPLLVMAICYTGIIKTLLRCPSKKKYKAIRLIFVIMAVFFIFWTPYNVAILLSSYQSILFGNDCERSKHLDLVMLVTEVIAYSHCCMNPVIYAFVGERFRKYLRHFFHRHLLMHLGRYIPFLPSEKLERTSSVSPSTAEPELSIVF
Experiment: Percent inhibition of [125I]eotaxin binding to human CCR3 receptor expressed in CHO cells at 1 uM
Assay type: cell-based
measure: inhibition (%)
Write it as a number; the unit % goes unstated.

CCCCCN1CCCC(CNC(=O)CSc2nc3ccccc3s2)C1 (stereo not drawn) :: 0

For the compound O=C(CSc1nc2ccccc2s1)NCC1CCCN(Cc2ccc3ccccc3c2)C1 (stereo not drawn) , what inhibition is on record? 5

Likewise for O=C(CSc1nc2ccccc2s1)NCC1CCCN(CCc2ccccc2)C1 (stereo not drawn) ? 0

Likewise for O=C(CSc1nc2ccccc2s1)NCC1CCCN(Cc2cccc3ccccc23)C1 (stereo not drawn) ? 15

Likewise for O=C(CSc1nc2ccccc2s1)NCC1CCCN(Cc2nccs2)C1 (stereo not drawn) ? 0

Likewise for O=C(CSc1nc2ccccc2s1)NCC1CCCN(Cc2cccnc2)C1 (stereo not drawn) ? 0

Likewise for CCCN1CCCC(CNC(=O)CSc2nc3ccccc3s2)C1 (stereo not drawn) ? 30

Likewise for O=C(CSc1nc2ccccc2s1)NCC1CCCN(Cc2ccncc2)C1 (stereo not drawn) ? 0

----------
Target: C-C chemokine receptor type 3 (Homo sapiens, UniProt P51677)
Assay: Concentration required for 50% inhibition of [125I]eotaxin binding to human CCR3 receptor expressed in CHO cells
Format: cell-based
measure: IC50 (nM)
Write it as a number; the unit nM goes unstated.

Answered examples (2):
O=C(CSc1nc2ccccc2s1)NC1CCN(Cc2ccccc2)CC1 :: 750
O=C(CSc1nc2ccccc2s1)NC1CCN(Cc2cccc(Cl)c2)CC1 :: 280

For the molecule O=C(CSc1nc2ccccc2s1)NCC1CCCN(CC2CCCCC2)C1 (centres undefined) , what IC50 is on record? 1000

Likewise for CCOc1ccc2nc(SCC(=O)NC3CCN(Cc4ccc(Cl)c(Cl)c4)CC3)sc2c1 ? 20

----------
Target: C-C chemokine receptor type 1 (Homo sapiens)
Sequence (P32246 whole entry): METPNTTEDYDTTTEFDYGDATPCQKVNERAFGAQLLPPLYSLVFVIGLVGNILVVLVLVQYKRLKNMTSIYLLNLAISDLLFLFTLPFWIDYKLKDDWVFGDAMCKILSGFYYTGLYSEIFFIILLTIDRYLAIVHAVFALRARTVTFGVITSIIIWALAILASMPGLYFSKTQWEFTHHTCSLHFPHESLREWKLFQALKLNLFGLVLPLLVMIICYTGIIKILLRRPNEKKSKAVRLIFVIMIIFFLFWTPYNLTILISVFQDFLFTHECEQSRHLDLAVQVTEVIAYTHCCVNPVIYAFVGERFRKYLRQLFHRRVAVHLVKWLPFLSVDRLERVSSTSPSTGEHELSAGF
Assay: Concentration required for 50% inhibition of [125I]eotaxin binding to human CCR1 receptor expressed in CHO cells
As shown below, each of these compounds has a reported pIC50 value.
Would you please state pIC50, meaning minus log10 of the concentration in mol/L, as a bare number?

Answered examples (3):
Nc1ccc2nc(SCC(=O)NC3CCN(Cc4ccc(Cl)c(Cl)c4)CC3)sc2c1 :: 5.72
CCOc1ccc2nc(SCC(=O)NC3CCN(Cc4ccc(Cl)c(Cl)c4)CC3)sc2c1 :: 5.44
O=C(CSc1nc2ccccc2s1)NC1CCN(Cc2ccc(Cl)cc2)CC1 :: 6.59

For the compound O=C(CSc1nc2ccccc2s1)NC1CCN(Cc2ccccc2)CC1 , what pIC50 is on record? 5.15

Likewise for O=C(CSc1nc2ccccc2s1)NC1CCN(Cc2ccc(Cl)c(Cl)c2)CC1 ? 6.35

Likewise for O=C(CSc1nc2ccccc2s1)NCC1CCCN(Cc2ccccc2)C1 (stereo not drawn) ? 5.38

----------
Biological target: C-C chemokine receptor type 3 (Homo sapiens, UniProt P51677)
Assay: Concentration required for 50% inhibition of [125I]eotaxin binding to human CCR3 receptor expressed in CHO cells
Assay type: cell-based
pIC50: −log10 of the molar value.
Is pIC50 at least 7? Then True. If not, False.

// below: answered molecules
CCOC(=O)c1ccc2nc(SCC(=O)NC3CCN(Cc4ccc(Cl)c(Cl)c4)CC3)sc2c1 :: True
O=C(CSc1nc2ccccc2s1)NCC1CCCN(Cc2ccccc2)C1 (stereo not given) :: False
O=C(CSc1nc2ccccc2s1)NC1CCN(Cc2ccc(Cl)c(Cl)c2)CC1 :: True

Does Nc1ccc2nc(SCC(=O)NC3CCN(Cc4ccc(Cl)c(Cl)c4)CC3)sc2c1 have a reported pIC50 of at least 7? True
